B1: PPP2R2C (parent)
chain: YSSSKGSLRLCDMRAAALCDKHSK

Variants of: B1
Assay: protein stability index of a GFP-peptide fusion (GPS, HEK-293T) (PSI 1-6); higher = more stable;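 note: lentivirally expressed fusions sorted by FACS into six bins by GFP to DsRed ratio, PSI derived from sequencing read proportions per bin multiplied by bin number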
Details: c terminus: a fixed tail appended
Measured protein stability index, listed per entry for reference.

// below: answered variants
> print(dat)
                    sequence.input  obs.value
1   YSSSKGQLRLCDMRAAALCDKHSK [S7Q]       2.04
2  YSSSKGSLRLCDMRAAAHCDKHSK [L18H]       2.03
3   YSSSKHSLRLCDMRAAALCDKHSK [G6H]       2.04
4   YSSSPGSLRLCDMRAAALCDKHSK [K5P]       2.03
5  YSSSKGSLRLCDLRAAALCDKHSK [M13L]          2
6  YSSSKGSLRLCDMRAAALCDKHSE [K24E]       1.96
7  YSSSKGSLRLCDMRAAALCDMHSK [K21M]       1.96
8  YSSSKGSLRLCDMRANALCDKHSK [A16N]       2.05

Now look at this entry.
Query: Query (variant): YSSSKGSSRLCDMRAAALCDKHSK [L8S] ; field requested: protein stability index
Response: 2.02

The reported measurements were obtained from the supplement of paper PMC10567573.
